# Tested on: THP-1
# experimentDescription: Antiproliferative activity against human THP-1 cells assessed as inhibition of cell growth incubated for 144 hrs by CellTiter-Glo luminescent cell viability assay
# Type: functional, cell-based
# experimentalParameters: THP-1, 144 h
endpointLabel: IC50 (µM)
Please respond with the number in µM and leave the unit unwritten.

Tested on THP-1, the item COc1cc2nc(NCCCN(C)C)nc(NC3CCN(Cc4ccc(-c5ccccc5)cc4)CC3)c2cc1OC showed IC50 equal to 0.087

Readout IC50 for COc1cc2nc(NCCCN(C)C)nc(NC3CCN(C(=O)OC(C)(C)C)CC3)c2cc1OC , test system THP-1, was 0.55

# lookup: COc1cc2c(NC3CCN(Cc4ccccc4)CC3)nc(NCCCN(C)C)nc2cc1OCc1ccccc1 on THP-1, IC50 = 0.13

Tested system THP-1; IC50 recorded for COc1cc2nc(NCCCN(C)C)nc(NC3CCN(CCCc4ccccc4)CC3)c2cc1OC was 0.22

Simply: COc1cc2c(NC3CCN(C(C)C)CC3)nc(C3CCCCC3)nc2cc1OCCCN1CCCC1 , THP-1, IC50 = 0.24

Form field IC50 for item COc1cc2nc(NCCCN(C)C)nc(N(C)C3CCN(Cc4ccccc4)CC3)c2cc1OC on THP-1: 0.3

Measured IC50 (THP-1), entry COc1cc2nc(NCCCN(C)C)nc(NC3CCN(Cc4ccc5ccccc5c4)CC3)c2cc1OC : 0.092

Observed IC50 on THP-1, entry C#CCN(C)CCCNc1nc(NC2CCN(Cc3ccccc3)CC2)c2cc(OC)c(OC)cc2n1 , equals 0.16

Value (IC50, THP-1) for record COc1cc2nc(NCCCN(C)C)nc(NC3CCN(Cc4ccccc4)CC3)c2cc1OC = 0.38

====

# Test system: SJRH30
# experimentDescription: Antiproliferative activity against human Rh30 cells assessed as inhibition of cell growth incubated for 72 hrs
# Assay type: functional, cell-based
# experimentalParameters: SJRH30, 72 h
endpointLabel: IC50 (nM)
Reply with just the number (in nM).

IC50 in this record for COc1cc2nc(NCCCN(C)C)nc(NC3CCN(Cc4ccc5ccccc5c4)CC3)c2cc1OC : 910

Cc1ccc(-c2ncc(OC[C@@H]3CCNC3)cc2-c2ccc(C#N)cc2)cc1 yielded IC50 of 10700

GET /value?item= COc1cc2nc(NCCCN(C)C)nc(NC3CCN(Cc4ccccc4)CC3)c2cc1OC &field=IC50 returns 2920

C#CCN(C)CCCNc1nc(NC2CCN(Cc3ccccc3)CC2)c2cc(OC)c(OC)cc2n1 yielded IC50 of 1530

Field IC50 (entry COc1cc2c(NC3CCN(Cc4ccccc4)CC3)nc(NCCCN(C)C)nc2cc1OCc1ccccc1 ) reads 960

Form: molecule = COc1cc2c(NC3CCN(C(C)C)CC3)nc(C3CCCCC3)nc2cc1OCCCN1CCCC1 ; IC50 = 2640

====

Kindly supply the reported inhibition at 100 µM values for the records listed here.
# studySystem: MAO-B (amine oxidase [flavin-containing] B) (Homo sapiens, UniProt P27338)
# Sequence (P27338 whole entry): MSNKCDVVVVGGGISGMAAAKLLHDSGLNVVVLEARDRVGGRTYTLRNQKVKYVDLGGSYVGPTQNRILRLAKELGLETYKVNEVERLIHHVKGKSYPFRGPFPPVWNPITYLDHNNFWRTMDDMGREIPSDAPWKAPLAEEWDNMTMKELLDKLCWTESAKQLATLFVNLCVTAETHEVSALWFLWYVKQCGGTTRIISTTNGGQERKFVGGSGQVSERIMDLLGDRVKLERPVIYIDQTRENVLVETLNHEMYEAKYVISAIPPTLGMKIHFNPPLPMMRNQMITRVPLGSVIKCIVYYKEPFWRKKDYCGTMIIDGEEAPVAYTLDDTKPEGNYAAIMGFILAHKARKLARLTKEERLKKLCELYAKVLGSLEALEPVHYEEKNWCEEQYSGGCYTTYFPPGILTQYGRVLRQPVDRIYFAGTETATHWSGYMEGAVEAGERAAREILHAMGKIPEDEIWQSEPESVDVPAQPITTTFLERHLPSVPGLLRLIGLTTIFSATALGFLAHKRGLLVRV
# experimentDescription: Inhibition of human MAO-B using p-tyramine as substrate at 100 uM by fluorimetric analysis relative to control
# experimentalParameters: human MAO-B enzyme, probe p-tyramine
Express your answer in %, writing the number without its unit.

Reading of inhibition at 100 µM for COc1cc2nc(NCCCN(C)C)nc(NC3CCN(CCCc4ccccc4)CC3)c2cc1OC with MAO-B (amine oxidase [flavin-containing] B) (Homo sapiens, UniProt P27338): 0.3

inhibition at 100 µM value, target or system MAO-B (amine oxidase [flavin-containing] B) (Homo sapiens, UniProt P27338), for COc1cc2c(NC3CCN(Cc4ccccc4)CC3)nc(NCCCN(C)C)nc2cc1OCc1ccccc1 : 0.5
